biological target: Serine/threonine-protein kinase Sgk3 (Homo sapiens, UniProt Q96BR1); test: Inhibition of recombinant human SGK3 (119 to end residues) using GRPRTSSFAEGKK as substrate incubated for 40 mins in presence of [gamma33P]ATP by radiometric scintillation counting analysis
pIC50: −log10 of the molar value.
REPORTED PROPERTY: pIC50

**Q:** Quickly give me recorded pIC50 for `CN(C)c1ccc(C(=O)Nc2cccc(NC(=O)COc3ccc4c(=O)ccoc4c3)c2)cc1`
**A:** < 5.00

---

target: Tyrosine-protein kinase JAK3 (Homo sapiens); assay: Inhibition of human recombinant JAK3 (781 to end residues) using GGEEEEYFELVKK as substrate after 40 mins by [gamma-33ATP] by radiometric scintillation counting analysis
REPORTED PROPERTY: IC50

**Q:** Recall and state the measured IC50 for `CN(C)c1ccc(C(=O)Nc2cccc(NC(=O)COc3ccc4c(=O)ccoc4c3)c2)cc1` .
**A:** > 10 µM

---

target: Tyrosine-protein kinase ABL1 (Homo sapiens, UniProt P00519); assay: Inhibition of human recombinant ABL1 (27 to end residues) using EAIYAAPFAKKK as substrate incubated for 40 mins in presence of [gamma-33P]ATP by radiometric scintillation counting analysis
pIC50: −log10 of the molar value.
REPORTED PROPERTY: pIC50

**Q:** Consider the molecule `CN(C)c1ccc(C(=O)Nc2cccc(NC(=O)COc3ccc4c(=O)ccoc4c3)c2)cc1` and give its recorded pIC50.
**A:** < 5.00

---

biological target: cGMP-dependent protein kinase 1 (Homo sapiens, UniProt Q13976); test: Inhibition of recombinant full length human PKG1beta using RRRLSFAEPG as substrate incubated for 40 mins in presence of [gamma-33P]ATP by radiometric scintillation counting analysis
Sequence (Q13976 whole entry): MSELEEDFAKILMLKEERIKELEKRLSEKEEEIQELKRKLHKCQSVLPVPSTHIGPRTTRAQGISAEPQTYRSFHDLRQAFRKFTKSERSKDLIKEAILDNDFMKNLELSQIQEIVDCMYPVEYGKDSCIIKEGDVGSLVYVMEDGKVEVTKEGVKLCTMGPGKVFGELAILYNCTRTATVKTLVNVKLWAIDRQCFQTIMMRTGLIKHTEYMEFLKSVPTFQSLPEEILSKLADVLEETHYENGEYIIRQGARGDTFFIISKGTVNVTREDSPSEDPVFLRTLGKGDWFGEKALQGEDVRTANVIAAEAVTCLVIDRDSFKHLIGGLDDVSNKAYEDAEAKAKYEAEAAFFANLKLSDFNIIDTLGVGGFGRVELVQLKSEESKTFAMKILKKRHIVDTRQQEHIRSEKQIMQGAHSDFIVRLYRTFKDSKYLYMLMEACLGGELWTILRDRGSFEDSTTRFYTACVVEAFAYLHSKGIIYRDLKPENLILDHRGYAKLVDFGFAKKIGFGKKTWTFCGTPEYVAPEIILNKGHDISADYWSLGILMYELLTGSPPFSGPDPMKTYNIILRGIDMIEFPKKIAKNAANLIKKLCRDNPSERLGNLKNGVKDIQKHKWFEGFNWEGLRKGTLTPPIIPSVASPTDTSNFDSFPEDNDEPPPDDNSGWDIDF
REPORTED PROPERTY: IC50 (nM)
Give the value, in units of nM, as a plain number.

**Q:** Fill in reported IC50 for this entry: `CN(C)c1ccc(C(=O)Nc2cccc(NC(=O)COc3ccc4c(=O)ccoc4c3)c2)cc1`
**A:** 660

---

test: Solubility of compound in miniQ water at 1 mg at 37 degreeC incubated under shaking conditions for overnight by LC-MS analysis; type: physicochemical
REPORTED PROPERTY: solubility thermodynamic (µg/mL)
Answer format: numeric, µg/mL implied, no suffix.

**Q:** Indicate the recorded solubility thermodynamic value for this compound: `CN(C)c1ccc(C(=O)Nc2cccc(NC(=O)COc3ccc4c(=O)ccoc4c3)c2)cc1`
**A:** 0.634

---

target: Serine/threonine-protein kinase Chk2 (Homo sapiens, UniProt O96017, R145W); experiment: Inhibition of recombinant human CHK2 R145W mutant (5 to end residues) using KKKVSRSGLYRSP as substrate incubated for 40 mins in presence of [gamma-33ATP] by radiometric scintillation counting analysis
pIC50: −log10 of the molar value.
REPORTED PROPERTY: pIC50

**Q:** Give the reported pIC50 for this compound. `CN(C)c1ccc(C(=O)Nc2cccc(NC(=O)COc3ccc4c(=O)ccoc4c3)c2)cc1`
**A:** < 5.00

---

target: Serine/threonine-protein kinase 35 (Homo sapiens, UniProt Q8TDR2); experiment: Inhibition of recombinant full length human CLIK1 at 10 uM using RSRSRSRSRSRS as substrate measured after 40 mins in presence of [gamma33P]ATP by radiometric scintillation counting analysis
REPORTED PROPERTY: IC50

**Q:** Quote IC50 reported for `CN(C)c1ccc(C(=O)Nc2cccc(NC(=O)COc3ccc4c(=O)ccoc4c3)c2)cc1` please.
**A:** > 10 µM

---

biological target: Activin receptor type-1-like (Homo sapiens); assay: Inhibition of human recombinant ALK1 (142 to end residues) using casein as substrate incubated for 40 mins in presence of [gamma-33P]ATP by radiometric scintillation counting analysis
REPORTED PROPERTY: IC50

**Q:** Please look at this molecule and report its IC50: `CN(C)c1ccc(C(=O)Nc2cccc(NC(=O)COc3ccc4c(=O)ccoc4c3)c2)cc1`
**A:** > 10 µM

---

biological target: Serine/threonine-protein kinase 33 (Homo sapiens); assay: Inhibition of recombinant full-length human STK33 using myelin basic protein as substrate incubated for 40 mins in presence of [gamma33P]ATP by radiometric scintillation counting analysis
REPORTED PROPERTY: IC50

**Q:** Identify measured IC50 associated with `CN(C)c1ccc(C(=O)Nc2cccc(NC(=O)COc3ccc4c(=O)ccoc4c3)c2)cc1`
**A:** > 10 µM

---

biological target: Insulin-like growth factor 1 receptor (Homo sapiens); test: Inhibition of human recombinant activated IGF1R (959 to end residues) using KKKSPGEYVNIEF as substrate after 40 mins by [gamma-33ATP] by radiometric scintillation counting analysis
REPORTED PROPERTY: IC50

**Q:** Respond only with IC50 recorded for `CN(C)c1ccc(C(=O)Nc2cccc(NC(=O)COc3ccc4c(=O)ccoc4c3)c2)cc1`
**A:** > 10 µM

---

target: Cyclin-dependent kinase 14/Cyclin-Y (Homo sapiens); assay: Inhibition of recombinant full length human CDK14/cyclinY in presence of [gamma-33ATP] by radiometric scintillation counting analysis
Sequence (O94921 whole entry): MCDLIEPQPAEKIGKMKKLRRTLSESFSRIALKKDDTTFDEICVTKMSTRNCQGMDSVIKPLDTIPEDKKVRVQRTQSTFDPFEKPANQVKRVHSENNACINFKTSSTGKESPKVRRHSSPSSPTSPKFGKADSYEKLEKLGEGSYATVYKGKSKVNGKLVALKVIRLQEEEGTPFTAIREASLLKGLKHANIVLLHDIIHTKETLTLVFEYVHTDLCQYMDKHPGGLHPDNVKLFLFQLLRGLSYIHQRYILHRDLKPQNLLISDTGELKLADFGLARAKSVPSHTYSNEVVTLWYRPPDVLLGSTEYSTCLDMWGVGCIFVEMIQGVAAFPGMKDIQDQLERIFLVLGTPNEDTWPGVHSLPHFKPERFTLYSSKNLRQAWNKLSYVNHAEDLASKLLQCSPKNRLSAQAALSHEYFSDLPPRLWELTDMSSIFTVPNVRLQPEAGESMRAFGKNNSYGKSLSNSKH
Sequence (Q8ND76 whole entry, further chain): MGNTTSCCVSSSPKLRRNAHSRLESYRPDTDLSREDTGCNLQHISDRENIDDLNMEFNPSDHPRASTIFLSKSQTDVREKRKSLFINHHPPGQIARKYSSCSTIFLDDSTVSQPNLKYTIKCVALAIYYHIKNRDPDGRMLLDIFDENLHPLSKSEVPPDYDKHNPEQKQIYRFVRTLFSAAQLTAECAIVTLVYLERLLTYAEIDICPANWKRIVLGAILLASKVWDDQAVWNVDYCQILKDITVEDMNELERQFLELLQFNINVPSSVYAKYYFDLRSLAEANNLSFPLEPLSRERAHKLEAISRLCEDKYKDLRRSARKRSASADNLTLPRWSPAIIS
REPORTED PROPERTY: IC50

**Q:** Specify reported IC50 for the compound shown: `CN(C)c1ccc(C(=O)Nc2cccc(NC(=O)COc3ccc4c(=O)ccoc4c3)c2)cc1`
**A:** > 10 µM

---

molecular target: 5'-AMP-activated protein kinase catalytic subunit alpha-2 (Homo sapiens, UniProt P54646); assay: Inhibition of human full length AMPKalpha2 recombinant using AMARAASAAALAR as substrate incubated for 40 mins in presence of [gamma-33ATP] by radiometric scintillation counting analysis
pIC50: −log10 of the molar value.
REPORTED PROPERTY: pIC50

**Q:** In one line, give reported pIC50 of the entry `CN(C)c1ccc(C(=O)Nc2cccc(NC(=O)COc3ccc4c(=O)ccoc4c3)c2)cc1` .
**A:** < 5.00

---

biological target: [Pyruvate dehydrogenase (acetyl-transferring)] kinase isozyme 4, mitochondrial (Homo sapiens, UniProt Q16654); assay: Inhibition of recombinant human full length PDHK4 using KKKYHGHSMSDPG as substrate incubated for 40 mins in presence of [gamma33P]ATP by radiometric scintillation counting analysis
REPORTED PROPERTY: IC50

**Q:** Please list IC50 recorded for the molecule `CN(C)c1ccc(C(=O)Nc2cccc(NC(=O)COc3ccc4c(=O)ccoc4c3)c2)cc1`
**A:** > 10 µM

---

biological target: NUAK family SNF1-like kinase 1 (Homo sapiens, UniProt O60285); experiment: Inhibition of human recombinant ARK5 (2 to end residues) using KKKVSRSGLYRSP as substrate incubated for 40 mins in presence of [gamma-33ATP] by radiometric scintillation counting analysis
Sequence (O60285 whole entry): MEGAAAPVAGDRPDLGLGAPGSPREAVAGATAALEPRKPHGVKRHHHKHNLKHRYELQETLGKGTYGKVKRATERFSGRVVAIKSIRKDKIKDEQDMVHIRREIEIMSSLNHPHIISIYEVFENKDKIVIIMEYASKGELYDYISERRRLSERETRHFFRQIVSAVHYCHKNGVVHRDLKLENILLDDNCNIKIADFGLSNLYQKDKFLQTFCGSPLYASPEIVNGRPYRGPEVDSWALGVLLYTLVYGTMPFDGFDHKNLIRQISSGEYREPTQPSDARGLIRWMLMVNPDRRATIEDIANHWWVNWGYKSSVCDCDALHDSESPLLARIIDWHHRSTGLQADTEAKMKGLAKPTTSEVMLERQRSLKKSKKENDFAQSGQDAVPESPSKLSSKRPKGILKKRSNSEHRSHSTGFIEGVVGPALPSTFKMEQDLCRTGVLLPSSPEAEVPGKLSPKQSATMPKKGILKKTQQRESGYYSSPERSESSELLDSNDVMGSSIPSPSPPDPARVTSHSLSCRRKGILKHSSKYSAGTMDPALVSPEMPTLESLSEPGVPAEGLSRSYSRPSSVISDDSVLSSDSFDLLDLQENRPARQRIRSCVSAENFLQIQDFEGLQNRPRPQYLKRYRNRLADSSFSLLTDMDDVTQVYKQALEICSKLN
REPORTED PROPERTY: IC50

**Q:** Could you please provide reported IC50 for `CN(C)c1ccc(C(=O)Nc2cccc(NC(=O)COc3ccc4c(=O)ccoc4c3)c2)cc1` ? Thanks!
**A:** > 10 µM

---

target: Epidermal growth factor receptor (Homo sapiens, UniProt P00533, L858R); experiment: Inhibition of recombinant human EGFR L858R mutant (696 to end residues) using poly(Glu, Tyr) 4:1 as substrate after 40 mins in presence of [gamma-33ATP] by radiometric scintillation counting analysis
Sequence (P00533 25-1210 L858R limits assumed): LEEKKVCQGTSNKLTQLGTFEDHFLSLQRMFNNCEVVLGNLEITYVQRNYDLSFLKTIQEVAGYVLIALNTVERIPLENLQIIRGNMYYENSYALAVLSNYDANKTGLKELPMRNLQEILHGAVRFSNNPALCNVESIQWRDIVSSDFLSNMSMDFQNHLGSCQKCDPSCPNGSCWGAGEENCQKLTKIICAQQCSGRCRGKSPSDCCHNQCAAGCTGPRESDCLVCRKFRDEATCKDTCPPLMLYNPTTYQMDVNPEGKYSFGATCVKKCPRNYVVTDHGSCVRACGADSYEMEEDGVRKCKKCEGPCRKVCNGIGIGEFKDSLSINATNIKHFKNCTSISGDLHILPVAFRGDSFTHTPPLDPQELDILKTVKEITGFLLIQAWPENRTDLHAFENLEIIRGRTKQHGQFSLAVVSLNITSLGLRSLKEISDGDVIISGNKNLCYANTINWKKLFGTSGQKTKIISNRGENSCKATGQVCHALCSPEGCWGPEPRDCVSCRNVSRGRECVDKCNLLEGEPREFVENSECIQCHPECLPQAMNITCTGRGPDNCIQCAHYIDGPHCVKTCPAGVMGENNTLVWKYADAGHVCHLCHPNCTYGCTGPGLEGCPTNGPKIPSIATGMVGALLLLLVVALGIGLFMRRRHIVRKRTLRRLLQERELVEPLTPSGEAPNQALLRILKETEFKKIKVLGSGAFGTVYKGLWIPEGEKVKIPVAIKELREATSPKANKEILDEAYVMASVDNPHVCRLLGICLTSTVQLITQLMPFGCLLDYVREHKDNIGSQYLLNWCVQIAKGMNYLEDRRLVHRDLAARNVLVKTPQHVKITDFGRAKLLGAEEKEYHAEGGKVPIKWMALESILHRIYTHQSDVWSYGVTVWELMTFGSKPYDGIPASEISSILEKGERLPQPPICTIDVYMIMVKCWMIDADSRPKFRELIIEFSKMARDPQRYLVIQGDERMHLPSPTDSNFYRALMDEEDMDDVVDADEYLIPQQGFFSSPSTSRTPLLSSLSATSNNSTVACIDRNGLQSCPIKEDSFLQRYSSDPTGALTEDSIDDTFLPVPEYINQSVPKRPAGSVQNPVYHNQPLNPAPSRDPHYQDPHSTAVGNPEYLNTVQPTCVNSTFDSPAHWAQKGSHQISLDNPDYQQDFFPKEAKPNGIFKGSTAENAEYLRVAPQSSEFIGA
REPORTED PROPERTY: IC50

**Q:** Please look at this molecule and report its IC50: `CN(C)c1ccc(C(=O)Nc2cccc(NC(=O)COc3ccc4c(=O)ccoc4c3)c2)cc1`
**A:** > 10 µM

---

target: RAF proto-oncogene serine/threonine-protein kinase (Homo sapiens, UniProt P04049, Y340D/Y341D); assay: Inhibition of recombinant human C-Raf Y340D/Y341D double mutant (306 to end residues) using poly(Glu, Tyr) 4:1 as substrate incubated 40 mins in presence of [gamma-33ATP] by radiometric scintillation counting analysis
Sequence (P04049 whole entry Y340D/Y341D): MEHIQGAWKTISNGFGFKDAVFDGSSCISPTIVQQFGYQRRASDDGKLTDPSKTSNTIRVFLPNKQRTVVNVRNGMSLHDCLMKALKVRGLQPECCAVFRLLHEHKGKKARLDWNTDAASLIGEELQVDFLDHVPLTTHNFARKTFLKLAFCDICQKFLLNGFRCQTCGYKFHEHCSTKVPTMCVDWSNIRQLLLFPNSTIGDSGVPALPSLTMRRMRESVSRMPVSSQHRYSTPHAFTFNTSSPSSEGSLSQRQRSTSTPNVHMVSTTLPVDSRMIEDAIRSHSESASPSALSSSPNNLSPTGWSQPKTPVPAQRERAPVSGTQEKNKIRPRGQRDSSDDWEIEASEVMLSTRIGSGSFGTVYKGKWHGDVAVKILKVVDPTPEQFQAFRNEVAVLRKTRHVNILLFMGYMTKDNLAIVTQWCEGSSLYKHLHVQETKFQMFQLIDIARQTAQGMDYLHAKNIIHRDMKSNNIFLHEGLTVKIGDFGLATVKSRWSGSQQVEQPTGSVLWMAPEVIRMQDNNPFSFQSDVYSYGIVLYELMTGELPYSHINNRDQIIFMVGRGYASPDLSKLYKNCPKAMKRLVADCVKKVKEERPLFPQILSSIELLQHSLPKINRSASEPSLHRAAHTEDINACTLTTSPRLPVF
pIC50: −log10 of the molar value.
REPORTED PROPERTY: pIC50

**Q:** In one line, give reported pIC50 of the entry `CN(C)c1ccc(C(=O)Nc2cccc(NC(=O)COc3ccc4c(=O)ccoc4c3)c2)cc1` .
**A:** < 5.00

---

molecular target: Serine/threonine-protein kinase Nek2 (Homo sapiens, UniProt P51955); test: Inhibition of recombinant full-length human NEK2 using myelin basic protein as substrate measured after 40 mins in presence of [gamma33P]ATP by radiometric scintillation counting analysis
Sequence (P51955 whole entry): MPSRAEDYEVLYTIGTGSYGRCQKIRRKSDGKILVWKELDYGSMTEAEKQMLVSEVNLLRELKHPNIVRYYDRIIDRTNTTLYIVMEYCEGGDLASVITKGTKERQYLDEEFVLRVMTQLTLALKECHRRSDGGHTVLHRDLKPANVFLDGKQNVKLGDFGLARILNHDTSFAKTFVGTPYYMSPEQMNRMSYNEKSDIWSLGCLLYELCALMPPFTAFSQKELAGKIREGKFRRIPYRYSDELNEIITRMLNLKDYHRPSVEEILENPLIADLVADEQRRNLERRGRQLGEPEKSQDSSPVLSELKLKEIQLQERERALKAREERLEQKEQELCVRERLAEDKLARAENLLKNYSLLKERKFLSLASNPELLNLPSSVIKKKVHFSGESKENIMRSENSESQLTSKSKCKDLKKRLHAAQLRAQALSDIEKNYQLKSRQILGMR
pIC50: −log10 of the molar value.
REPORTED PROPERTY: pIC50

**Q:** Specify pIC50 for `CN(C)c1ccc(C(=O)Nc2cccc(NC(=O)COc3ccc4c(=O)ccoc4c3)c2)cc1` and stop.
**A:** < 5.00

---

biological target: Cyclin-dependent kinase-like 4 (Homo sapiens, UniProt Q5MAI5); assay: Inhibition of recombinant full length human CDKL4 in presence of [gamma-33ATP] by radiometric scintillation counting analysis
Sequence (Q5MAI5 whole entry): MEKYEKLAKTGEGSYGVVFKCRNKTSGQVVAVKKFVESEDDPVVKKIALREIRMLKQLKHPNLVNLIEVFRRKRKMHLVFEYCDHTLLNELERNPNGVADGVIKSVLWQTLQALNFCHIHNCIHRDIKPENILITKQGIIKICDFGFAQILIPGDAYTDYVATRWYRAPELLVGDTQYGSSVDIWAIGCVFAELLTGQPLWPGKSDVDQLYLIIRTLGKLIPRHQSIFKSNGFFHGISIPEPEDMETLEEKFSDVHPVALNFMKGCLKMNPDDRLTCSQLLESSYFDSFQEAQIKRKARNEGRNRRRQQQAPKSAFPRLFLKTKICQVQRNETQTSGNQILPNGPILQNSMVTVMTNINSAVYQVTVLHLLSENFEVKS
pIC50: −log10 of the molar value.
REPORTED PROPERTY: pIC50

**Q:** Recall the reported pIC50 of `CN(C)c1ccc(C(=O)Nc2cccc(NC(=O)COc3ccc4c(=O)ccoc4c3)c2)cc1` when tested on Cyclin-dependent kinase-like 4 (Homo sapiens, UniProt Q5MAI5).
**A:** < 5.00
